test: Cmax in Sprague-Dawley rat at 5 mg/kg, po measured up to 24 hrs by LC-MS/MS analysis; format: ADME, organism-based; settings: in vivo
Value Kind: Cmax (ng/mL)

Solved cases (5 shown):
O=C(O)c1ccc2nc(CN3CCC(Oc4cccc(COc5ccc6cnn(CC(F)F)c6c5F)n4)CC3)n(C[C@@H]3CCO3)c2n1    38.3
O=C(O)c1ccc2nc(CN3CCC(Oc4cccc(COc5ccc(Cl)c6ccoc56)n4)CC3)n(C[C@@H]3CCO3)c2n1    116
O=C(O)c1ccc2nc(CN3CC=C(c4cccc(OCc5ccc(C6CC(F)(F)C6)cc5F)n4)CC3)n(C[C@@H]3CCO3)c2c1    22
COc1cc(C(=O)O)cc2c1nc(CN1CC=C(c3cccc(OCc4ccc(C5CC(F)(F)C5)cc4F)n3)CC1)n2C[C@@H]1CCO1    31.5
O=C(O)c1ccc2nc(CN3CCC(Oc4cccc(Cc5ccc(Cl)c6c5OCC6)n4)CC3)n(C[C@@H]3CCO3)c2n1    24.1

1 = O=C(O)c1ccc2nc(Cc3ccc(-c4cccc(OCc5ccc(C6CC(F)(F)C6)cc5F)n4)cc3F)n(C[C@@H]3CCO3)c2c1
2 = N#Cc1ccc(COc2cccc(C3CCN(Cc4nc5ccc(C(=O)O)cc5n4C[C@@H]4CCO4)CC3)n2)c(F)c1
// query Hi there! Just curious which has the higher Cmax between 1 and 2 . Your choice should be expressed through its label.
// result 2
(2: 130 ng/mL, 1: 33.6 ng/mL)

a = O=C(O)c1ccc2nc(CN3CC=C(c4cccc(OCc5ccc(C6CC(F)(F)C6)cc5F)n4)CC3)n(C[C@@H]3CCO3)c2n1
b = O=C(O)c1ccc2nc(CN3CCC(Oc4cccc(COc5ccc6cnn(CC(F)F)c6c5)n4)CC3)n(C[C@@H]3CCO3)c2n1
c = COc1cc(C(=O)O)cc2c1nc(CN1CCC(c3cccc(OCc4ccc(C5CC(F)(F)C5)cc4F)n3)CC1)n2C[C@@H]1CCO1
d = O=C(O)c1cc(F)c2nc(CN3CCC(c4cccc(OCc5ccc(C6CC(F)(F)C6)cc5F)n4)CC3)n(C[C@@H]3CCO3)c2c1
// query Rank entries according to their Cmax, from the largest number down. // format: requested-order list of labels
// result a, b, d, c
(a: 256 ng/mL, b: 133 ng/mL, d: 65.6 ng/mL, c: 20.2 ng/mL)

====

test: AUC (0 to infinity) in Sprague-Dawley rat at 5 mg/kg, po measured up to 24 hrs by LC-MS/MS analysis; format: ADME, organism-based; conditions: in vivo
Value Kind: AUC(0-inf) (µg·h/mL)

Known results for molecules:
O=C(O)c1ccc2nc(CN3CC=C(c4cccc(OCc5ccc(C6CC(F)(F)C6)cc5F)n4)CC3)n(C[C@@H]3CCO3)c2n1    1.38
COc1cc(C(=O)O)cc2c1nc(CN1CC=C(c3cccc(OCc4ccc(C5CC(F)(F)C5)cc4F)n3)CC1)n2C[C@@H]1CCO1    0.084
O=C(O)c1ccc2nc(CN3CC=C(c4cccc(OCc5ccc(C6CC(F)(F)C6)cc5F)n4)CC3)n(C[C@@H]3CCO3)c2c1    0.067

1 = COc1cc(C(=O)O)cc2c1nc(CN1CCC(c3cccc(OCc4ccc(C5CC(F)(F)C5)cc4F)n3)CC1)n2C[C@@H]1CCO1
2 = O=C(O)c1ccc2nc(CN3CCC(Oc4cccc(COc5ccc6cnn(CC(F)F)c6c5)n4)CC3)n(C[C@@H]3CCO3)c2n1
// query When 1 and 2 are compared, which has the higher number for AUC(0-inf)? Respond using the label that marks the chosen record.
// result 2
(2: 0.149 µg·h/mL, 1: 0.0618 µg·h/mL)

P = O=C(O)c1ccc2nc(CN3CCC(Oc4cccc(COc5ccc6cnn(CC(F)F)c6c5F)n4)CC3)n(C[C@@H]3CCO3)c2n1
Q = O=C(O)c1ccc2nc(Cc3ccc(-c4cccc(OCc5ccc(C6CC(F)(F)C6)cc5F)n4)cc3F)n(C[C@@H]3CCO3)c2c1
// query Among P and Q , whose measured AUC(0-inf) is the smaller figure? Please reply using the label of the selected record.
// result P

1 = N#Cc1ccc(COc2cccc(C3CCN(Cc4nc5ccc(C(=O)O)cc5n4C[C@@H]4CCO4)CC3)n2)c(F)c1 [DANUGLIPRON]
2 = O=C(O)c1ccc2nc(CN3CCC(Oc4cccc(COc5ccc(Cl)c6ccoc56)n4)CC3)n(C[C@@H]3CCO3)c2n1
// query # min-compare on AUC(0-inf) between 1 and 2 Pick one; state its label.
// result 2
